# Test system: HGGX39 (paediatric high-grade glioma line)
# Assay text: EC50 (inflection of fitted growth-inhibition curve) (log10 M)
Parameter: EC50 (log10 M)
Answers are plain numbers.

Some molecules with known EC50 (log10 M) results, for comparison:
[
  {
    "Molecule": "CCC(COC(=O)c1cc(OC)c(OC)c(OC)c1)(c1ccccc1)N(C)C (stereo not given)",
    "EC50 (log10 M)": -5.08
  },
  {
    "Molecule": "C[C@@]12OC(=O)[C@]1([C@@H](O)[C@@H]1C=CCCC1)NC(=O)[C@@H]2CCCl",
    "EC50 (log10 M)": -6.39
  },
  {
    "Molecule": "COc1cc(Nc2ncc3c(n2)-c2ccc(Cl)cc2C(c2c(F)cccc2OC)=NC3)ccc1C(=O)O",
    "EC50 (log10 M)": -4.99
  },
  {
    "Molecule": "C[C@H]1[C@H](OC(=O)CCC(=O)O)O[C@@H]2O[C@@]3(C)CC[C@H]4[C@H](C)CC[C@@H]1[C@@]24OO3 [ARTESUNATE]",
    "EC50 (log10 M)": -4.94
  },
  {
    "Molecule": "COc1ccc(C[C@H](NC(=O)[C@H](C)NC(=O)CN2CCOCC2)C(=O)N[C@@H](Cc2ccccc2)C(=O)C2(C)CO2)cc1 (stereo in doubt)",
    "EC50 (log10 M)": -6.36
  }
]

Give measured EC50 (log10 M) for every item shown.
1. NC1CCC(Nc2cc(-c3cccc(NCc4cccc(F)c4)n3)c(Cl)cn2)CC1 (stereo not given)
2. CC(=O)Nc1cccc(-n2c(=O)n(C3CC3)c(=O)c3c(Nc4ccc(I)cc4F)n(C)c(=O)c(C)c32)c1
3. CC(C)(C)c1cnc(CSc2cnc(NC(=O)C3CCNCC3)s2)o1

[-5.75, -5.15, -6.02]

Give measured EC50 (log10 M) for every item shown.
1. CCN1CCN(Cc2ccc(Nc3ncc(F)c(-c4cc(F)c5nc(C)n(C(C)C)c5c4)n3)nc2)CC1
2. CCN(CC)CCNC(=O)c1c(C)[nH]c(/C=C2\C(=O)Nc3ccc(F)cc32)c1C
3. C[C@@H]1O[C@@H](O[C@H]2C[C@@H](O)[C@]3(CO)[C@H]4[C@H](O)C[C@]5(C)[C@@H](C6=CC(=O)OC6)CC[C@]5(O)[C@@H]4CC[C@]3(O)C2)[C@H](O)[C@H](O)[C@H]1O
4. Nc1ccc2ncnc(NCCc3ccc(Oc4ccccc4)cc3)c2c1
5. Cc1ccc2nc(NCCN)c3ncc(C)n3c2c1
6. CC(C)c1nc(N(C)S(C)(=O)=O)nc(-c2ccc(F)cc2)c1/C=C/[C@@H](O)C[C@@H](O)CC(=O)O

1: -6.29; 2: -4.77; 3: -6.9; 4: -8.62; 5: -4.91; 6: -5.45

Please give the measured EC50 (log10 M) for this molecule: CN[C@H]1CC[C@@H](c2ccc(Cl)c(Cl)c2)c2ccccc21
-4.83
